Tested on: 454973-116-R2-J3-PDC spheroids, percent test/control viability
Experiment: Anticancer human tumor 454973-116-R2-J3-PDC patient-derived pancreatic carcinoma cell line growth inhibition [CLK]
Conditions: curve of first compound; second compound 0.0316 µM; spheroids with HUVEC and MSC
From the text: A high-throughput screen of multi-cell type tumor spheroids was designed to identify active combinations of […] and targeted small molecules. Complex spheroids include a stromal component modeled by human endothelial cells (HUVEC) and fibroblasts modeled by human mesenchymal stem cells (MSCs). […] Compounds. […] If the clinical Cmax for an agent had not been determined, the highest concentration tested was 10 microM. […]
Field: IC50. Provide a value for each of the compounds that follow.

Input line: Find IC50 for CC(Nc1ccc2c(c1)OCCn1cc(N3C(=O)OCC3C(F)F)nc1-2)C(N)=O (stereo not given) + CNC(=O)c1ccc(Nc2nc(OC3CCCC3)c3c(-c4ccc5nc(C)oc5c4)c[nH]c3n2)c(OC)c1 on 454973-116-R2-J3-PDC spheroids, percent test/control viability and write it down.
Output line: > 10 µM

Input line: # lookup: 454973-116-R2-J3-PDC spheroids, percent test/control viability IC50, key = Nc1ccn(C2OC(CO)C(O)C2(F)F)c(=O)n1 (stereo not given) + CN1CCN(c2cc(C(=O)Nc3cc4cc(-c5cnn(C)c5)ccc4cn3)ccn2)CC1
Output line: < 0.0316 µM

Input line: Give the observed IC50 of COc1c(OCCCN2CCOCC2)ccc2c3n(c(=NC(=O)c4cnc(N)nc4)nc12)CCN3 + CN1CCN(c2cc(C(=O)Nc3cc4cc(-c5cnn(C)c5)ccc4cn3)ccn2)CC1 for 454973-116-R2-J3-PDC spheroids, percent test/control viability.
Output line: 0.0951 µM

Input line: Give IC50 only, for CC(Nc1ccc2c(c1)OCCn1cc(N3C(=O)OCC3C(F)F)nc1-2)C(N)=O (stereo not given) + CN1CCN(c2cc(C(=O)Nc3cc4cc(-c5cnn(C)c5)ccc4cn3)ccn2)CC1 , using 454973-116-R2-J3-PDC spheroids, percent test/control viability data.
Output line: > 10 µM

Input line: Report value: IC50, system: 454973-116-R2-J3-PDC spheroids, percent test/control viability, compound: C=C(F)C(=O)N1CCN(c2nc(OCC3CCCN3C)nc3c2CCN(c2cccc4cccc(Cl)c24)C3)CC1CC#N (stereo not given) + CNC(=O)c1ccc(Nc2nc(OC3CCCC3)c3c(-c4ccc5nc(C)oc5c4)c[nH]c3n2)c(OC)c1
Output line: 5.84 µM

* * *

Can you tell me viability, T/C for the items I'm about to list?
Tested on: 454973-116-R2-J3-PDC spheroids, percent test/control viability
Assay: Anticancer human tumor 454973-116-R2-J3-PDC cell line growth inhibition [CLK];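 further: spheroids exposed to compounds for 7 days before readout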
Conditions: second compound 0.1 µM; first compound 1 µM; stronger effect = lower value; spheroids with HUVEC and MSC
Description: A high-throughput screen of multi-cell type tumor spheroids was designed to identify active combinations of […] and targeted small molecules. Complex spheroids include a stromal component modeled by human endothelial cells (HUVEC) and fibroblasts modeled by human mesenchymal stem cells (MSCs). […] Compounds. […] If the clinical Cmax for an agent had not been determined, the highest concentration tested was 10 microM. […]
Express it in %; write the number only.

Input line: # lookup: 454973-116-R2-J3-PDC spheroids, percent test/control viability viability, T/C, key = CCN1CCN(Cc2ccc(Nc3ncc(F)c(-c4cc(F)c5nc(C)n(C(C)C)c5c4)n3)nc2)CC1 + CNC(=O)c1ccc(Nc2nc(OC3CCCC3)c3c(-c4ccc5nc(C)oc5c4)c[nH]c3n2)c(OC)c1
Output line: 56.2

Input line: Give the observed viability, T/C of O=c1[nH]cc(F)c(=O)[nH]1 + CNC(=O)c1ccc(Nc2nc(OC3CCCC3)c3c(-c4ccc5nc(C)oc5c4)c[nH]c3n2)c(OC)c1 for 454973-116-R2-J3-PDC spheroids, percent test/control viability.
Output line: 75.8

Input line: Provide 454973-116-R2-J3-PDC spheroids, percent test/control viability viability, T/C reading for C#Cc1c(F)ccc2cc(O)cc(-c3ncc4c(N5CC6CCC(C5)N6)nc(OCC56CCCN5CC(F)C6)nc4c3F)c12 (stereo not drawn) + CNC(=O)c1ccc(Nc2nc(OC3CCCC3)c3c(-c4ccc5nc(C)oc5c4)c[nH]c3n2)c(OC)c1 .
Output line: 27.5

* * *

Tested on: 454973-116-R2-J3-PDC spheroids, percent test/control viability
Test: Anticancer human tumor 454973-116-R2-J3-PDC cell line growth inhibition [CLK];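 further: spheroids exposed to compounds for 7 days before readout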
Conditions: second compound 1 µM; first compound 0.03 µM; stronger effect = lower value; spheroids with HUVEC and MSC
Excerpt: A high-throughput screen of multi-cell type tumor spheroids was designed to identify active combinations of […] and targeted small molecules. Complex spheroids include a stromal component modeled by human endothelial cells (HUVEC) and fibroblasts modeled by human mesenchymal stem cells (MSCs). […] Compounds. […] If the clinical Cmax for an agent had not been determined, the highest concentration tested was 10 microM. […]
Could you please report measured viability, T/C for the items listed next?
Give a bare numeral; the unit % is implied.

Input line: Complete the entry with viability, T/C for NC(=O)C(=Cn1cnc(-c2cc(C(F)(F)F)cc(C(F)(F)F)c2)n1)c1cncnc1 + CN1CCN(c2cc(C(=O)Nc3cc4cc(-c5cnn(C)c5)ccc4cn3)ccn2)CC1
Output line: 0.15

Input line: Consider the compound CC(C)CC(NC(=O)C(Cc1ccccc1)NC(=O)c1cnccn1)B(O)O (stereo not drawn) + CNC(=O)c1ccc(Nc2nc(OC3CCCC3)c3c(-c4ccc5nc(C)oc5c4)c[nH]c3n2)c(OC)c1 and give its recorded viability, T/C.
Output line: 2.96

Input line: Tell me its viability, T/C given CC(C)CC(NC(=O)C(Cc1ccccc1)NC(=O)c1cnccn1)B(O)O (stereo not drawn) + CN1CCN(c2cc(C(=O)Nc3cc4cc(-c5cnn(C)c5)ccc4cn3)ccn2)CC1 as the entry.
Output line: 0.05

* * *

Hi there, I'd appreciate the recorded IC50 for every entry that follows.
Tested on: 454973-116-R2-J3-PDC spheroids, percent test/control viability
Assay: Anticancer human tumor 454973-116-R2-J3-PDC cell line growth inhibition [CLK];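 further: spheroids exposed to compounds for 7 days before readout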
Details: curve of first compound; second compound 0.316 µM; spheroids with HUVEC and MSC

Input line: Name the recorded IC50 of the compound listed here: CC1COCCN1c1cc(C2(S(C)(=N)=O)CC2)nc(-c2ccnc3[nH]ccc23)n1 (stereo not given) + CNC(=O)c1ccc(Nc2nc(OC3CCCC3)c3c(-c4ccc5nc(C)oc5c4)c[nH]c3n2)c(OC)c1
Output line: < 31.6 nM

Input line: Please report the measured IC50 for CCN1CCN(Cc2ccc(Nc3ncc(F)c(-c4cc(F)c5nc(C)n(C(C)C)c5c4)n3)nc2)CC1 + CN1CCN(c2cc(C(=O)Nc3cc4cc(-c5cnn(C)c5)ccc4cn3)ccn2)CC1
Output line: < 3.16 nM

Input line: Give IC50 for the following compound: CCc1c2c(nc3ccc(O)cc13)-c1cc3c(c(=O)n1C2)COC(=O)[C@]3(O)CC + CN1CCN(c2cc(C(=O)Nc3cc4cc(-c5cnn(C)c5)ccc4cn3)ccn2)CC1
Output line: < 3.16 nM

Input line: Kindly indicate its recorded IC50. Item: CC1COCCN1c1cc(C2(S(C)(=N)=O)CC2)nc(-c2ccnc3[nH]ccc23)n1 (stereo not given) + CN1CCN(c2cc(C(=O)Nc3cc4cc(-c5cnn(C)c5)ccc4cn3)ccn2)CC1
Output line: < 31.6 nM

Input line: Tell me its IC50 given NC(=O)C(=Cn1cnc(-c2cc(C(F)(F)F)cc(C(F)(F)F)c2)n1)c1cncnc1 + CNC(=O)c1ccc(Nc2nc(OC3CCCC3)c3c(-c4ccc5nc(C)oc5c4)c[nH]c3n2)c(OC)c1 as the entry.
Output line: 61.9 nM

* * *

Test system: 454973-116-R2-J3-PDC spheroids, percent test/control viability
Experiment: Anticancer human tumor 454973-116-R2-J3-PDC cell line growth inhibition [CLK]; active = viability on the fitted dose curve at most 10% of control; inactive = the rest;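 further: spheroids exposed to compounds for 7 days before readout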
Settings: second compound 0.1 µM; first compound 1 µM; spheroids with HUVEC and MSC
// classify into active, inactive

Input line: Per the assay record, what outcome was assigned to Nc1ccccc1NC(=O)c1ccc(CNC(=O)OCc2cccnc2)cc1 + CN1CCN(c2cc(C(=O)Nc3cc4cc(-c5cnn(C)c5)ccc4cn3)ccn2)CC1 ?
Output line: inactive

Input line: Returns: the outcome recorded for CC1(C)CCC(CN2CCN(c3ccc(C(=O)NS(=O)(=O)c4ccc(NCC5CCOCC5)c([N+](=O)[O-])c4)c(Oc4cnc5[nH]ccc5c4)c3)CC2)=C(c2ccc(Cl)cc2)C1 + CN1CCN(c2cc(C(=O)Nc3cc4cc(-c5cnn(C)c5)ccc4cn3)ccn2)CC1 in this assay.
Output line: inactive

Input line: For this molecule, state the assay outcome: COc1ccc([C@@H](O)c2cc(-c3ncnc4cc(N5CCOCC5)ccc34)c(F)cc2Cl)nn1 + CNC(=O)c1ccc(Nc2nc(OC3CCCC3)c3c(-c4ccc5nc(C)oc5c4)c[nH]c3n2)c(OC)c1
Output line: inactive

Input line: Please let me know the test result on file for COc1ccc([C@@H](O)c2cc(-c3ncnc4cc(N5CCOCC5)ccc34)c(F)cc2Cl)nn1 + CN1CCN(c2cc(C(=O)Nc3cc4cc(-c5cnn(C)c5)ccc4cn3)ccn2)CC1 .
Output line: inactive

Input line: Can you look up the reported call for COc1c(OCCCN2CCOCC2)ccc2c3n(c(=NC(=O)c4cnc(N)nc4)nc12)CCN3 + CNC(=O)c1ccc(Nc2nc(OC3CCCC3)c3c(-c4ccc5nc(C)oc5c4)c[nH]c3n2)c(OC)c1 for me?
Output line: active

Input line: Any idea what this test logged for CCCS(=O)(=O)Nc1ccc(F)c(C(=O)c2c[nH]c3ncc(-c4ccc(Cl)cc4)cc23)c1F + CNC(=O)c1ccc(Nc2nc(OC3CCCC3)c3c(-c4ccc5nc(C)oc5c4)c[nH]c3n2)c(OC)c1 ?
Output line: inactive

Input line: Check the results log: what was the call for C=C(F)C(=O)N1CCN(c2nc(OCC3CCCN3C)nc3c2CCN(c2cccc4cccc(Cl)c24)C3)CC1CC#N (stereo not given) + CN1CCN(c2cc(C(=O)Nc3cc4cc(-c5cnn(C)c5)ccc4cn3)ccn2)CC1 ?
Output line: inactive

Input line: # fetch the recorded call for CC(Nc1ccc2c(c1)OCCn1cc(N3C(=O)OCC3C(F)F)nc1-2)C(N)=O (stereo not given) + CN1CCN(c2cc(C(=O)Nc3cc4cc(-c5cnn(C)c5)ccc4cn3)ccn2)CC1 here
Output line: inactive

Input line: Hi team, can someone confirm the assay call for CCCS(=O)(=O)Nc1ccc(F)c(C(=O)c2c[nH]c3ncc(-c4ccc(Cl)cc4)cc23)c1F + CN1CCN(c2cc(C(=O)Nc3cc4cc(-c5cnn(C)c5)ccc4cn3)ccn2)CC1 ?
Output line: inactive

Input line: Give the logged outcome of this assay for the following molecule: CC1COCCN1c1cc(C2(S(C)(=N)=O)CC2)nc(-c2ccnc3[nH]ccc23)n1 (stereo not given) + CNC(=O)c1ccc(Nc2nc(OC3CCCC3)c3c(-c4ccc5nc(C)oc5c4)c[nH]c3n2)c(OC)c1
Output line: inactive
